Numbers sourced from PubChem BioAssay.

# test: TLR3 IRF3 reporter activation blockers – cell-based, poly I:C stimulus, luciferase, 10K MLSCN set, primary screen (AID 602277)
# conditionInfo: HEK293-TLR3 RL24 IRF3 luciferase reporter, at 10 µM, hits give high values
Entries annotated with measured inhibition
reportedMetric: inhibition (%)

1. CC(=NCCCO)c1c(O)n(Cc2ccccc2)c(=O)[nH]c1=O    11
2. OCCOCC#CCN1CCOCC1    20.5
3. CN1C(=O)N(C)C(=O)C2(Cc3ccccc3N3CCOCC32)C1=O (configuration not stated)    24.6
4. C#C[C@]1(O)CC[C@H]2[C@@H]3CCC4=CC(=O)CC[C@]4(C)[C@H]3CC[C@@]21C    37.9
5. COC(=NC1CCCC1)C(O)c1c[nH]c2ccccc12 (configuration not stated)    32.2
6. CCNc1ccc(P(=S)(N(C)C)N(C)C)cc1    26.1
7. COc1ccc(Cc2nccc3cc(OC)c(OC)cc23)cc1OC    -3.94

---

# measuredOn: Muscarinic acetylcholine receptor M4 (Homo sapiens) (UniProt P08173)
# Sequence (P08173 whole entry, looked up): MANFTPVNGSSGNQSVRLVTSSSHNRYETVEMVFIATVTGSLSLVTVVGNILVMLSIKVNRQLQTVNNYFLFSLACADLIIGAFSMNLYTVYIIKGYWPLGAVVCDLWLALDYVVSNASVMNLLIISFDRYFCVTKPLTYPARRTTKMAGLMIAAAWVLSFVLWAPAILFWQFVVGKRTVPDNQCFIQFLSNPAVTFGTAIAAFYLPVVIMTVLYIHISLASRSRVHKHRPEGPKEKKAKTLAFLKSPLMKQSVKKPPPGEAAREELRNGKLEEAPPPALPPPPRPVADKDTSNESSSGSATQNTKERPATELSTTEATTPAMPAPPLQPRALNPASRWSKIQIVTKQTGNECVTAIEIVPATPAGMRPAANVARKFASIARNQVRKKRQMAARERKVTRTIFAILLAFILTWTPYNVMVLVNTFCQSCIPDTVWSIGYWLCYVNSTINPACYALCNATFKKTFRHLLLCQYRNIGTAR
# test: M4-linked GIRK flux change, two-sided – cell-based, HEK293 M4/GIRK, thallium flux, BTC-AM, M4 allosteric agonist project, primary screen (AID 625);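 further: thallium influx through GIRK channels coupled to M4 in HEK293 cells with BTC-AM dye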
# conditionInfo: at 10 µM, actives lie on both sides
reportedMetric: fluorescence slope

1) CC(=NCc1cccnc1)c1c(O)n(Cc2ccccc2)c(=O)[nH]c1=O    0.0065
2) NCC1(c2ccc3c(c2)OCCO3)CCCC1    0.0056
3) CCCC12CN3CN(C1)CC(CCC)(C3)C2O (configuration not stated)    0.00532
4) COc1ccc(C(=O)CC2C(=O)N(C)C(=O)N(C)C2=O)cc1    0.00539
5) COc1ccc(C2NCc3ccc4c(c3-n3cccc32)OCO4)cc1O (configuration not stated)    0.00468
6) CSc1ccc(CNC2CN3CCC2CC3)cc1 (configuration not stated)    0.00514
7) CCCCn1c(O)c(C(C)=Nc2cccc(C(=O)O)c2)c(=O)[nH]c1=O    0.00369
8) Cc1cc(NC(=O)COC(=O)c2c(C)nn(Cc3ccccc3)c2Cl)no1    0.00868
9) CCCN(CC#CCO)CCC    0.00435
10) CCCCn1c(O)c(C(C)=NCCc2ccccc2)c(=O)[nH]c1=O    0.00293
11) NC(=O)OCCSc1nnc(-c2cccc(C(N)=S)c2)o1    0.00508
12) Cc1[nH]c2c(Cl)cccc2c1CCN    0.0063

---

# test: TLR3 IRF3 reporter activation blockers – cell-based, poly I:C stimulus, luciferase, 10K MLSCN set, primary screen (AID 602277)
# conditionInfo: HEK293-TLR3 RL24 IRF3 luciferase reporter, at 10 µM, hits give high values
reportedMetric: inhibition (%)

1. CC(C)(C)C(O)C(Oc1ccc(Cl)cc1)n1cncn1 (centres undefined)    32.5
2. CC1(C)Cc2c(sc3c2C(=O)NC(c2cccnc2)N3)CO1 (centres undefined)    5.63
3. CC(C)N(CCC(C(N)=O)(c1ccccc1)c1ccccn1)C(C)C (centres undefined)    34
4. COc1cc(/C=N/n2cnnc2)ccc1OC(=O)N(C)C    20.9

---

Collected inhibition values appear next to each entry.
# test: inhibitors of TNFa-induced NFkB p65 translocation, primary screen, imaging, HUVEC, MLSMR starter and 10KST1 sets (AID 438);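 further: compound added about 3h40 before a 20 min TNFalpha stimulation; signal is the nuclear over cytoplasmic p65 intensity ratio per well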
# conditionInfo: HUVEC TNFa-induced p65 nuclear translocation; at 2 µM, hits give high values unless noted
reportedMetric: inhibition (%)

1) CC[N+]1(C)CCCC(OC(=O)C(O)(c2ccccc2)c2ccccc2)C1 (configuration not stated)    -11.6
2) CCCCn1c(O)c(C=NC2CCCCC2N)c(=O)[nH]c1=O (configuration not stated)    -6
3) CC(C)[C@@]1(NC(=O)[C@@H]2C=C3c4cccc5[nH]cc(c45)C[C@H]3N(C)C2)O[C@@]2(O)[C@@H]3CCCN3C(=O)[C@H](Cc3ccccc3)N2C1=O    -0.4
4) CCC(=NCCCN1CCOCC1)c1c(O)n(Cc2ccccc2)c(=O)[nH]c1=O    0.8
5) COc1cc(C2NCc3ccccc3-n3cccc32)ccc1O (configuration not stated)    -19.1
6) C=CCn1c(O)c(C(C)=NCc2cccnc2)c(=O)[nH]c1=O    -1
7) CSc1ccc(C(=O)C(C)(C)N2CCOCC2)cc1    -5.2
8) Cc1ccc(CC2C(=O)N(C)C(=O)N(C)C2=O)s1    2.6
9) COC1=CC(=O)OC(/C=C/c2ccccc2)C1 (configuration not stated)    0.9
10) O=C(Cn1ncc2c3ccccc3n(Cc3ccc(F)cc3)c2c1=O)N1CCC2(CC1)OCCO2    2.9
11) CN(C)[C@@H]1C(=O)C(C(N)=O)=C(O)[C@@]2(O)C(=O)C3=C(O)c4c(O)cccc4[C@@](C)(O)[C@H]3C[C@@H]12    5.4
12) NC(=O)OCCSc1nnc(-c2cccc(C(N)=S)c2)o1    3.5
13) CCN(CC)CCN=Cc1c(O)n(CCc2ccccc2)c(=O)[nH]c1=O    7.8
14) CN(C)CCN=Cc1c(O)n(-c2cccc3ccccc23)c(=O)[nH]c1=O    0
15) COc1ccc(C(=O)N2CCCC2=O)cc1    2.2
16) Nc1ncc(P(=S)(N2CCOCC2)N2CCOCC2)s1    -2.7
17) C=CCOC(=O)C1=C(C)OC(N)=C(C#N)C12C(=O)N(CN1CCOCC1)c1ccccc12 (configuration not stated)    0.7
18) CN1CCC(N(C)c2ncnc3ccc(Br)cc23)CC1    5
19) CCCCCCn1c(O)c(C(C)=NC)c(=O)[nH]c1=O    -6.2
20) Cc1ccc(OCC(=O)NCCN2CCN(C(=O)COc3ccc(C)cc3)CC2)cc1    -0.2
21) COc1ccc(C(=O)CN2CCOCC2)cc1F    -8.3
22) CC1CCN2c3nc4ccccn4c(=O)c3CC3(C(=O)N(C)C(=O)N(C)C3=O)C2C1 (configuration not stated)    -8.6
23) CN1CCc2nc(SCC(=O)OC(C)(C)C)c(C#N)cc2C1    -21.6
24) CN(C)c1cc(N)c2c(n1)CCC2 (tested in a mixture with another compound)    -0.3
25) NC(=O)CSP(=O)(c1ccccc1)c1ccccc1    -3.5
26) CN1CCC(OC(=O)C2c3ccccc3Oc3ccccc32)CC1    -3.3
27) O=C(C1CCCN(S(=O)(=O)c2cccc3nsnc23)C1)N1CCC2(CC1)OCCO2 (configuration not stated)    -0.7
28) CCOc1ccc(Cc2c(O)[nH]c(=O)[nH]c2=O)cc1    -8.4
29) COc1ccccc1OCCCn1cc(C(=O)c2ccco2)c2ccccc21    -2.5
30) O=c1[nH]c(=O)n(-c2ccc(F)cc2)c(O)c1C=Nc1ccccc1N1CCCC1    -0.3
31) COC(=O)C(c1ccccc1)N1CCCCCC1 (configuration not stated)    0.3
32) Cc1ccc(C)c(NC2=NCCCS2)c1    9.3
33) CC1CCC(C(=O)NC(C(=O)N2CCC3(CC2)OCCO3)C(C)C)CC1 (configuration not stated)    3.4
34) NCC1(CC(=O)O)CCCCC1    -5.2
35) O=C1CC(N2CCC(n3c(=O)[nH]c4ccccc43)CC2)C(=O)N1c1ccc(F)cc1 (configuration not stated)    3.6
36) c1ccc(C2CC3CC(c4ccco4)N2O3)cc1 (configuration not stated)    -1.4
37) O=C(C(Cc1ccccc1)NS(=O)(=O)c1ccc(F)cc1)N1CCC2(CC1)OCCO2 (configuration not stated)    -11.2

---

# test: endothelial E-selectin expression blockers – imaging, HUVEC, immunofluorescence, MLSMR starter and 10KST1 sets, primary screen (AID 487);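 further: signal is fraction of cell area covered by stained E-selectin grains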
# conditionInfo: HUVEC TNFalpha-induced E-selectin immunofluorescence imaging, at 2 µM; hits give high values
Decision: inhibition >= -50% yields YES, all other cases yield NO.

1. c1ccc2c(c1)[nH]c1cnccc12    NO
2. COc1cc2[nH]c(=O)n(-c3cccc(Cl)c3)c(=O)c2cc1OC    NO
3. CCOc1ccc(Br)c(C2(O)CC(C)N(C)CC2C)c1 (stereo not given)    YES
4. COc1ccc(CCNC(=O)c2c(N)n(CCN3CCOCC3)c3nc4ccccc4nc23)cc1    NO
5. O=C(NC1(C(F)(F)F)Oc2ccc(Cl)cc2O1)N1CCC2(CC1)OCCO2 (stereo not given)    NO
6. NCCc1ccc(O)cc1    YES
7. CC(=O)C1C(=O)NC23CCCCC2C1c1ccccc1O3 (stereo not given)    YES
8. CCOc1ccc(C2SCC(=O)Nc3c2c(=O)[nH]n3C2CCCCCC2)cc1 (stereo not given)    YES
9. CCOc1ccc(Cc2c(O)[nH]c(=O)[nH]c2=O)cc1    NO
10. CC(C)[C@@]1(NC(=O)[C@@H]2C[C@@H]3c4cccc5[nH]cc(c45)C[C@H]3N(C)C2)O[C@@]2(O)[C@@H]3CCCN3C(=O)[C@H](Cc3ccccc3)N2C1=O    NO
11. CC(C)N(CCC(C(N)=O)(c1ccccc1)c1ccccn1)C(C)C (stereo not given)    YES
12. Cc1c2ccncc2c(C)c2c1[nH]c1ccccc12    YES
13. Nc1c(C(=O)NCc2ccco2)c2nc3ccccc3nc2n1Cc1ccc(F)cc1    YES
14. O=C(NCc1ccccn1)c1ccccc1Cl    YES
15. Cn1c(O)c(C=NCCCNC2CCCCC2)c(=O)n(C)c1=O    NO
16. O=C(c1sc2ccccc2c1Cl)N1CCC2(CC1)OCCO2    NO
17. O=C(C1CCCN(c2nnc(-n3cccc3)s2)C1)N1CCC2(CC1)OCCO2 (stereo not given)    YES
18. OCC12COC3c4ccccc4C(OC1)N32 (stereo not given)    YES
19. CP(C)(=O)CCC(=O)O    NO
20. CCc1ccc(OCCCN=C(C)c2c(O)n(C)c(=O)n(C)c2=O)cc1    YES
21. O=c1[nH]c(=O)n(Cc2ccco2)c(O)c1C=NCCN1CCOCC1    NO
22. CC1=NOC2(C)Nc3ncnn3C(c3ccccc3)C12 (stereo not given)    NO
23. Cc1ccc(C2SCC(=O)Nc3c2c(=O)[nH]n3C2CCOC(C)(C)C2)cc1 (stereo not given)    YES
24. Cc1nn(-c2ccccc2)c2c1CC1(C(=O)N(C)C(=O)N(C)C1=O)C1CCCCN21 (stereo not given)    YES
25. Cc1ccc(C)c(NC2=NCCCS2)c1    NO
26. O=C(Cn1cc(C(=O)c2ccccc2)c2ccccc21)NCc1ccco1    YES
27. CCN1CCN(Cc2cc(Br)cc(OC)c2O)CC1    NO
28. CC#CP(=O)(OCC)C(O)(c1ccccc1)C(F)(F)F (stereo not given)    YES
29. CN1CCN(c2c[nH]c(=O)[nH]c2=O)CC1    NO
30. CC1(C)NCCN2C(=O)CSC21 (stereo not given)    NO
31. Cc1[nH]c2c(Cl)cccc2c1CCN    YES
32. O=P(c1ccccc1)(c1ccccc1)N1CCCCC1    YES
33. NCC1(c2ccc3c(c2)OCCO3)CCCC1    YES
34. O=C(c1ccco1)C12CN3CN(CN(C3)C1)C2    NO
35. CC(=NCCO)c1c(O)n(C)c(=O)n(C)c1=O    YES
36. O=C(CN1CCN(Cc2cccc(Cl)c2)C1=O)N1CCC2(CC1)OCCO2    YES
37. O=C(O)CCCc1ccc(N(CCCl)CCCl)cc1    NO
38. CCCCNC(=O)Nc1ccc(C(O)(C(=O)OCC)C(F)(F)F)cc1 (stereo not given)    YES
39. CCCCCCOc1ccc(CN2CCN(C)CC2)cc1    NO
40. COCCOC(=O)c1c(N)n(Cc2ccco2)c2nc3ccccc3nc12    NO
41. OCCOCC#CCN1CCOCC1    NO
42. C[C@H]1OC[C@@H](C[N+](C)(C)C)O1    NO
43. CCC(=NCCOc1ccc(Cl)cc1)c1c(O)n(C)c(=O)n(C)c1=O    NO
44. OC(CNC1CCCCC1)c1ccccc1 (stereo not given)    NO
45. CC(=O)Nc1ccc(OC(=O)c2ccccc2N)cc1    NO
